System: pathogenic bacteria
Assay: MIC by microdilution broth method (NCCLS M7-A4), in vitro antibacterial activity
Assay type: cell-based
Conditions: Staphylococcus aureus, Organism A: Staphylococcus aureus OC4172; read-out: MIC
Counter-ions that a name gives are not always drawn.
property.name: log10 of MIC (log10 of the value in µg/mL)
Note: values are log10 of MIC expressed in µg/mL.

Example molecules with recorded log10 of MIC:
| molecule | log10 of MIC |
| --- | --- |
| O=C(O)c1cn(C2CC2)c2cc(N3CCC(=C(Cl)CN4CCCCC4)CC3)c(F)cc2c1=O | -0.30 |
| NC/C(F)=C1\CCCN(c2cc3c(cc2F)c(=O)c(C(=O)O)cn3C2CC2)CC1 | -0.60 |
| COc1c(N2CCC(=C(Cl)CN3CCCC3)CC2)c(F)cc2c(=O)c(C(=O)O)cn(C3CC3)c12 | -0.92 |
| O=CN1CCN(CC(Cl)=C2CCN(c3nc4c(cc3F)c(=O)c(C(=O)O)cn4C3CC3)CC2)CC1 [Compound 291, Trifluoroacetic Acid Salt] | 0.30 |
| Cc1c(F)c(N2CCC/C(=C\CN)C2)cc2c1c(=O)c(C(=O)O)cn2C1CC1 | -0.60 |
| NC/C(Cl)=C1\CCCN(c2nc3c(cc2F)c(=O)c(C(=O)O)cn3C2CC2)CC1 | -0.60 |

log10 of MIC reported for this molecule `C/C(CN)=C1\CCCN(c2nc3c(cc2F)c(=O)c(C(=O)O)cn3-c2ccc(F)cc2F)C1` : -0.92

log10 of MIC reported for this molecule `C[C@@H]1CN(c2nc3c(cc2F)c(=O)c(C(=O)O)cn3C2CC2)C/C(=C(/F)CN)CO1` : 0.30

log10 of MIC reported for this molecule `COc1c(N2CC(=C(Cl)CN)C2)ccc2c(=O)c(C(=O)O)cn(C3CC3)c12` : -0.92

log10 of MIC reported for this molecule `COc1c(N2CC(=C(Cl)CO)C2)c(F)cc2c(=O)c(C(=O)O)cn(C3CC3)c12` : -1.22

log10 of MIC reported for this molecule `CN(CC(Cl)=C1CCN(c2c(F)cc3c(=O)c(C(=O)O)cn(C4CC4)c3c2OC(F)F)CC1)Cc1ccccc1` : 0.00

* * *

Quick reference for MIC among some compounds
System: pathogenic bacteria
Assay: MIC by microdilution broth method (NCCLS M7-A4), in vitro antibacterial activity
Assay type: cell-based
Details: Streptococcus pneumoniae, Organism C: fluoroquinolone-resistant clinical isolate of Streptococcus pneumoniae (QRDR amino acid substitutions)
Answer with a number only, understood to be in µg/mL.

| structure.smiles | property.name | quantitative.readout |
| --- | --- | --- |
| C[C@H]1COc2c(N3CCC(=C(C#N)CN)CC3)c(F)cc3c(=O)c(C(=O)O)cn1c23 | MIC | 4 |
| NC/C(Cl)=C1\CCCN(c2c(F)cc3c(=O)c(C(=O)O)cn(-c4nc(N)c(F)cc4F)c3c2Cl)C1 | MIC | 8 |

MIC reported for this compound `NC/C(Cl)=C1\CCCN(c2c(F)cc3c(=O)c(C(=O)O)cn(C4CC4)c3c2OC(F)F)C1` : 16

MIC reported for this compound `C[C@H]1COc2c(N3CCC/C(=C(\F)CN)CC3)c(F)cc3c(=O)c(C(=O)O)cn1c23` : 4

MIC reported for this compound `COc1c(N2CCC(=C(F)CN(C)C)CC2)c(F)cc2c(=O)c(C(=O)O)cn(C3CC3)c12` : 2

Values from patent US20090156577A1
